Numbers sourced from paper PMC10397247.

binders and their reported interaction score
# tgt: T1, 4H3631-bA
# T1 chain: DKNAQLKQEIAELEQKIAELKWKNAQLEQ
# test description: two-hybrid library CCNG1;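 also: natural log of median RNA to DNA barcode read ratio; higher means stronger binding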
Answer field: number only, no words.

Check out these entries, answers already filled in.
Q. Report measured interaction score; entry is DENAQLKQEIAELKQENAELKWKIAQLEQ [4H1629-bA]
A. -0.216

Q. Tell me measured interaction score for DKNAQLEQKIAELKQENAELEWKIAQLKQ [4H3414-bA] please.
A. 0.00557

Q. For DENAQLKQKIAELEQEIAELKWENAQLKQ [4H1804-bA] , write its interaction score.
A. 0.394

Okay, next one:
Q. Supply reported interaction score belonging to this binder: DENAQLEQKNAELEQKIAELKWEIAQLEQ [4H1449-bA]
A. 0.473
